# Assay Overview: qHTS assay for identifying genotoxic compounds that show differential cytotoxicity against isogenic chicken DT40 cell lines with known DNA damage response pathways - wild type cell line (AID 743012); note: nearly all actives have a fitted effect of over 60% in size
# Assay Setup: DT40 wild type chicken cells viability, CellTiter-Glo, 40 h; series mostly up to 68.4 µM
Records with an inconclusive call do not appear. Calls of active or inactive are those of the source. Calls come from the whole dose curve; as a rule, active = well fitted cell-killing curve with a large enough effect in the repeat runs; inconclusive = weak or mixed curves, or effect the other way; inactive = no such curve, though single readings can be large or run the other way.
Possible outcomes: t for active, f for inactive

>>> class_assignment("CC(C)c1ccc2oc3nc(N)c(C(=O)O)cc3c(=O)c2c1")
"f"
>>> class_assignment("CCCCCCCCCCCCCCC")
"f"
>>> class_assignment("CN(C)C(=O)C(CCN1CCC(O)(c2ccc(Cl)cc2)CC1)(c1ccccc1)c1ccccc1")
"t"
>>> class_assignment("CCCCCCCCC=O")
"f"
>>> class_assignment("O=C(O)c1ccccc1S")
"f"
>>> class_assignment("CSc1ccc(C=O)cc1")
"f"
>>> class_assignment("O=S(=O)(O)c1ccccc1O")
"f"
>>> class_assignment("CN1[C@@H]2CC[C@H]1CC(NC(=O)n1c(=O)[nH]c3ccccc31)C2 (some centres undefined)")
"f"
>>> class_assignment("O=C(O)C(O)[C@H](O)[C@@H](O)[C@H](O)[C@H](O)CO (some centres undefined)")
"f"
>>> class_assignment("COC(=O)c1ccc(C(=O)OC)c(C(=O)OC)c1")
"f"
>>> class_assignment("C=C(C)C(=O)OCCCCCCCCCCCCCCCCCC")
"f"
>>> class_assignment("C=CC(=O)OCCCCCC")
"f"
>>> class_assignment("N#CCc1ccccc1[N+](=O)[O-]")
"f"
>>> class_assignment("CC(C)(O)c1ccccc1")
"f"

----------
# Assay Overview: qHTS assay for small molecule activators of the heat shock response signaling pathway - cell viability counter screen (AID 743209); note: % is set by controls: 0 for no effect and ±100 for the full control effect; nearly all actives have a fitted effect of over 50% in size
# Assay Setup: HSE-bla HeLa viability, CellTiter-Glo luminescence, 5 h; series mostly up to 62.6 µM
Results filed as inconclusive are left out. The source made the active and inactive calls. Calls follow the shape of the dose curve; as a rule, active = well fitted cell-killing curve with a large enough effect in the repeat runs; inconclusive = weak or mixed curves, or effect the other way; inactive = no such curve, though single readings can be large or run the other way.
Quantity: activity change, negative = cytotoxicity

>>> data_value("CCCCCCC(=O)OCC")
"inactive"
>>> data_value("COC(=O)C1=C(C)NC(C)=C(C(=O)OCC(C)=O)C1c1ccccc1[N+](=O)[O-] (configuration not stated)")
"inactive"
>>> data_value("CCCCCN(CCCCC)C(=O)C(CCC(=O)O)NC(=O)c1ccc(Cl)c(Cl)c1 (configuration not stated)")
"inactive"
>>> data_value("CO[Si](CCCNCCC[Si](OC)(OC)OC)(OC)OC")
"inactive"
>>> data_value("C1=C\\CC/C=C\\CC/C=C\\CC/1")
"inactive"
>>> data_value("CCC(=O)c1cccc(Cl)c1")
"inactive"
>>> data_value("CN(C)C(=O)C(CCN1CCC(O)(c2ccc(Cl)cc2)CC1)(c1ccccc1)c1ccccc1")
"inactive"
>>> data_value("CC(C)[C@H](N)C(=O)OCCOCn1cnc2c(=O)[nH]c(N)nc21")
"inactive"
>>> data_value("CCC(C(=O)NC(N)=O)c1ccccc1 (configuration not stated)")
"inactive"
>>> data_value("c1ccc(SCCSc2ccccc2)cc1")
"inactive"
>>> data_value("C/C=C1\\C(=O)C[C@H]2[C@@H]3CCC4=CC(=O)CC[C@]4(C)[C@H]3CC[C@]12C")
"inactive"
>>> data_value("Cc1nccn1CC1CCc2c(c3ccccc3n2C)C1=O (configuration not stated)")
"inactive"

----------
# Assay Overview: qHTS assay for small molecule disruptors of the mitochondrial membrane potential (AID 720635)
# Assay Setup: HepG2 mitochondrial membrane potential, Mito-MPS dye ratio; series mostly up to 83.2 µM
Records with an inconclusive call do not appear. The source made the active and inactive calls. Calls follow the shape of the dose curve; as a rule, active = well fitted inhibition curve with a large enough effect in the signal ratio in the repeat runs; inconclusive = weak or mixed curves, or effect the other way; inactive = flat fitted curve, though single readings scatter; the % refers to the signal ratio.
Outcomes: active, inactive

>>> class_assignment("CCCCC1CCCCC(=O)O1 (stereo unspecified)")
"inactive"
>>> class_assignment("N[C@@H](CS)C(=O)O")
"active"
>>> class_assignment("COC(=O)C1=C(C)NC(C)=C(C(=O)OCC(C)=O)C1c1ccccc1[N+](=O)[O-] (stereo unspecified)")
"active"
>>> class_assignment("CC(C)(O)Cc1ccccc1")
"inactive"
>>> class_assignment("COC(C(=O)O)c1ccccc1 (stereo unspecified)")
"inactive"
>>> class_assignment("C=CCn1c(=O)n([C@@H]2O[C@H](CO)[C@@H](O)[C@H]2O)c2nc(N)[nH]c(=O)c21")
"inactive"
>>> class_assignment("O=C(O)/C=C/c1ccc(/C=C/C(=O)O)cc1")
"inactive"
>>> class_assignment("COc1cccc(Br)c1")
"inactive"
>>> class_assignment("CCCc1ccccc1O")
"active"
>>> class_assignment("CCCCCCCCCCCCCCCCCC(=O)OCCCCCCCCCCCCCC(C)C")
"inactive"
>>> class_assignment("NCC[C@H](O)C(=O)N[C@@H]1C[C@H](N)[C@@H](O[C@H]2O[C@H](CN)[C@@H](O)[C@H](O)[C@H]2O)[C@H](O)[C@H]1O[C@H]1O[C@H](CO)[C@@H](O)[C@H](N)[C@H]1O")
"inactive"

----------
# Assay Overview: qHTS assay to test for compound auto fluorescence at 590 nm (red) in HEK293 cell free culture (AID 720683); note: % is set by controls: 0 for no effect and ±100 for the full control effect
# Assay Setup: cell-free medium autofluorescence, Ex540/Em590 red; series mostly up to 91.3 µM
The source made the active and inactive calls. The call rests on the fitted dose curve; in most records, active means well fitted curve in the direction sought with a large enough effect in the repeat runs; inconclusive means weak or mixed curves; inactive means flat fitted curve, though single readings scatter.
Quantity: fluorescence, % of fluorescent control

>>> data_value("CN(C)N=Nc1ccccc1")
"inactive"
>>> data_value("O=S(=O)(O)c1ccccc1O")
"inactive"
>>> data_value("CC1(C)SC(C)(C)SC(C)(C)S1")
"inactive"
>>> data_value("OCC(O)[C@@H](O)[C@H](O)[C@H](O)CO[C@H]1O[C@H](CO)[C@@H](O)[C@H](O)[C@H]1O (some centres undefined)")
"inactive"
>>> data_value("FC(F)(F)C(F)(F)C(F)(F)C(F)(F)C(F)(F)C(F)(F)C(F)(F)C(F)(F)C(F)(F)C(F)(F)F")
"-0.0476% [at 9.17 µM] (inactive)"
>>> data_value("OCC(CO)(CO)COCC(CO)(CO)CO")
"inactive"
>>> data_value("COc1ccc(NC(C)=O)cc1")
"inactive"
>>> data_value("CC(C)COC(=O)C(C)C")
"inactive"
>>> data_value("CC(C)(C)CC(C)(C)N")
"inactive"
>>> data_value("COc1cc(C)cc(O)c1")
"inactive"
>>> data_value("CC(C)CCCC(C)CCCC(C)CCCCC(C)CCCC(C)CCCC(C)C (centres undefined)")
"inactive"
>>> data_value("Cn1cnc2c(=O)[nH]c(N)nc21")
"inactive"
>>> data_value("C=CC(=O)N1CCOCC1")
"inactive"
>>> data_value("C=C(C)C(=O)NCCC[N+](C)(C)C")
"inactive"
>>> data_value("N#CCN(CC#N)CCN(CC#N)CC#N")
"inactive"
>>> data_value("CCN1CCN(c2cc3c(cc2F)c(=O)c(C(=O)O)cn3C2CC2)CC1")
"inactive"
>>> data_value("CCO[Si](CCCN=C=O)(OCC)OCC")
"inactive"
>>> data_value("C#CC(O)CCCCC (centres undefined)")
"inactive"
>>> data_value("Oc1cc(O)c2c(c1)O[C@H](c1ccc(O)c(O)c1)[C@H](O)C2")
"inactive"
>>> data_value("C=C(C)[C@H]1CC=C(C)CC1")
"inactive"
>>> data_value("Nc1[nH]c(=O)ncc1F")
"-0.113% [at 18.6 µM] (inactive)"
>>> data_value("Cc1c(C)n(CCN(C)C)c2ccc(C(=O)OCCN(C)C)cc12")
"inactive"
>>> data_value("CCCCCCCCCCCl")
"inactive"
>>> data_value("COC(=O)CCCCCCCCC(=O)OC")
"inactive"
>>> data_value("Nc1cc(C(Cl)=C(Cl)Cl)c(S(N)(=O)=O)cc1S(N)(=O)=O")
"inactive"
>>> data_value("CCN(CC)S(=O)(=O)c1ccc(C(=O)O)cc1")
"inactive"
>>> data_value("CC(O)CN(CCCN(C)C)CCCN(C)C (centres undefined)")
"inactive"
>>> data_value("CC/C=C\\CCCCO")
"inactive"
>>> data_value("CCCCCC[C@@H](CCC)C(=O)O")
"inactive"
>>> data_value("COc1cc(O)cc(O)c1")
"inactive"
>>> data_value("CCCC(C)CO (centres undefined)")
"inactive"
>>> data_value("CC/C=C\\C#N")
"inactive"
>>> data_value("NC(N)=NS(=O)(=O)c1ccc(N)cc1")
"-0.0082% [at 18.6 µM] (inactive)"
>>> data_value("c1cc(CN2CCCCC2)cc(OCCCNc2nc3ccccc3s2)c1")
"inactive"
>>> data_value("COc1cccc(Br)c1")
"inactive"
>>> data_value("CCCCCCOC(=O)c1ccccc1O")
"inactive"
>>> data_value("C=CCOc1nc(OCC=C)nc(OCC=C)n1")
"inactive"
>>> data_value("CCN1CCCC(OC(=O)C(c2ccccc2)c2ccccc2)C1 (centres undefined)")
"0.138% [at 18.6 µM] (inactive)"
>>> data_value("C[C@H]1O[C@@H](n2cc(F)c(=O)[nH]c2=O)[C@H](O)[C@@H]1O")
"inactive"
>>> data_value("CC(C)c1cccc(C(C)C)c1N")
"inactive"
>>> data_value("CCCCCCCCCCCCCCCCCC(=O)OCCCCCCCCCCCCCC(C)C")
"inactive"
>>> data_value("CC(C)(C)N(CCO)CCO")
"inactive"
>>> data_value("CCCCN(CCO)CCO")
"inactive"
>>> data_value("CN(C)C(=O)C(CCN1CCC(O)(c2ccc(Cl)cc2)CC1)(c1ccccc1)c1ccccc1")
"inactive"
>>> data_value("CC(C)CCCCCCN")
"inactive"
>>> data_value("CCCCCCC(CCCCCCCCCCC(=O)OCC(COC(C)=O)OC(C)=O)OC(C)=O (centres undefined)")
"inactive"
>>> data_value("CCCCNc1ccccc1")
"inactive"
>>> data_value("COC(=O)CCCC(=O)O")
"inactive"
>>> data_value("Cc1ccccc1C(=O)O")
"inactive"
>>> data_value("NC(=O)CCCCC1CCSS1 (centres undefined)")
"inactive"
>>> data_value("CC(C)=CC(=O)O")
"inactive"
>>> data_value("CC(C=O)Cc1ccc(C(C)C)cc1 (centres undefined)")
"inactive"
>>> data_value("Fc1ccccc1-c1ccccc1")
"inactive"
>>> data_value("NS(=O)(=O)c1cc2c(cc1C(F)(F)F)NC(Cc1ccccc1)NS2(=O)=O (centres undefined)")
"0.0682% [at 18.6 µM] (inactive)"
>>> data_value("NC1CCN(c2cccc(Cl)n2)CC1")
"inactive"
>>> data_value("CCCCc1ccc2cccc(S(=O)(=O)O)c2c1")
"inactive"
>>> data_value("COc1ccc(COC=O)cc1")
"inactive"
>>> data_value("Cc1ccc(N)cc1[N+](=O)[O-]")
"inactive"
>>> data_value("Nc1ccc2cc(S(=O)(=O)O)ccc2c1")
"inactive"
